# Measurement Context: human gut metagenome, 24 h, 2 µM; further: call rule not given here
Result Type: Bacterial Biotransformation

C[C@@H]1CC[C@H]2[C@@H](C)C(=O)O[C@@H]3O[C@@]4(C)CC[C@@H]1[C@]32OO4 [ARTEMISININ]    Compound metabolized
CNC(=C[N+](=O)[O-])NCCSCc1ccc(CN(C)C)o1 [RANITIDINE]    Compound metabolized
CC(=O)OCC(=O)[C@@]1(O)[C@@H](C)C[C@H]2[C@@H]3CCC4=CC(=O)C=C[C@]4(C)[C@@]3(F)[C@@H](O)C[C@@]21C [BETAMETHASONE ACETATE]    Compound metabolized
CCOc1ccc(NC(C)=O)cc1 [PHENACETIN]    Compound NOT metabolized
CCN(CC)CCOC(=O)C(Cc1cccc2ccccc12)CC1CCCO1.O=C(O)C(=O)O (stereo unspecified) [NAFRONYL OXALATE]    Compound metabolized

The following compounds each have a reported value; give each one's Bacterial Biotransformation.
1. NS(=O)(=O)c1cc2c(cc1Cl)N=C(CSCc1ccccc1)NS2(=O)=O [BENZTHIAZIDE]
2. CCCCc1nc(Cl)c(CO)n1Cc1ccc(-c2ccccc2-c2nn[nH]n2)cc1 [LOSARTAN]

Completion:
1. Compound NOT metabolized
2. Compound metabolized

The following compounds each have a reported value; give each one's Bacterial Biotransformation.
1. OCCN1CCN(CCCN2c3ccccc3Sc3ccc(C(F)(F)F)cc32)CC1 [FLUPHENAZINE]
2. Cc1ccc(S(=O)(=O)NC(=O)NN2CCCCCC2)cc1 [TOLAZAMIDE]
3. CN1CCC(=C2c3ccccc3CCc3cccnc32)CC1.O=C(O)/C=C\C(=O)O.O=C(O)/C=C\C(=O)O [AZATADINE MALEATE]
4. CN1CCOC(c2ccccc2)c2ccccc2C1 (stereo unspecified) [NEFOPAM]
5. CN1CCc2c(c3ccccc3n2Cc2ccccc2)C1.CN1CCc2c(c3ccccc3n2Cc2ccccc2)C1.O=S(=O)(O)c1cccc2c(S(=O)(=O)O)cccc12

Completion:
["Compound metabolized", "Compound metabolized", "Compound NOT metabolized", "Compound NOT metabolized", "Compound metabolized"]

The following compounds each have a reported value; give each one's Bacterial Biotransformation.
1. COc1ccc2c(c1OC)C(=O)O[C@@H]2[C@H]1c2c(cc3c(c2OC)OCO3)CCN1C [NOSCAPINE]
2. CN(C)CC(c1ccc(O)cc1)C1(O)CCCCC1.O=C(O)CCC(=O)O (stereo unspecified) [DESVENLAFAXINE SUCCINATE]
3. O=c1[nH]c2ccccc2n1CCCN1CCC(n2c(=O)[nH]c3cc(Cl)ccc32)CC1 [DOMPERIDONE]

Completion:
1: Compound NOT metabolized; 2: Compound NOT metabolized; 3: Compound NOT metabolized

The following compounds each have a reported value; give each one's Bacterial Biotransformation.
1. Cc1cn([C@H]2C[C@H](N=[N+]=[N-])[C@@H](CO)O2)c(=O)[nH]c1=O [ZIDOVUDINE]
2. O=C(CCCN1CCC(O)(c2ccc(Cl)cc2)CC1)c1ccc(F)cc1 [HALOPERIDOL]

Completion:
1: Compound NOT metabolized; 2: Compound NOT metabolized

The following compounds each have a reported value; give each one's Bacterial Biotransformation.
1. CC[C@@H](CO)NC(=O)[C@@H]1C=C2c3cccc4c3c(cn4C)C[C@H]2N(C)C1.O=C(O)/C=C\C(=O)O [METHYSERGIDE MALEATE]
2. Cc1ccc(-c2cc(C(F)(F)F)nn2-c2ccc(S(N)(=O)=O)cc2)cc1 [CELECOXIB]
3. NC(CO)(CO)CO.O=C(c1ccccc1)c1ccc2n1CCC2C(=O)O (stereo unspecified) [KETOROLAC TROMETHAMINE]
4. C#C[C@]1(O)CC[C@H]2[C@@H]3CCC4=CC(=O)CC[C@@H]4[C@H]3CC[C@@]21CC [LEVONORGESTREL]

Completion:
Compound NOT metabolized
Compound metabolized
Compound metabolized
Compound metabolized
